For each entry below, report its pIC50 value.
- target or system: Amine oxidase [flavin-containing] A (Homo sapiens, UniProt P21397)
- Sequence (P21397 whole entry): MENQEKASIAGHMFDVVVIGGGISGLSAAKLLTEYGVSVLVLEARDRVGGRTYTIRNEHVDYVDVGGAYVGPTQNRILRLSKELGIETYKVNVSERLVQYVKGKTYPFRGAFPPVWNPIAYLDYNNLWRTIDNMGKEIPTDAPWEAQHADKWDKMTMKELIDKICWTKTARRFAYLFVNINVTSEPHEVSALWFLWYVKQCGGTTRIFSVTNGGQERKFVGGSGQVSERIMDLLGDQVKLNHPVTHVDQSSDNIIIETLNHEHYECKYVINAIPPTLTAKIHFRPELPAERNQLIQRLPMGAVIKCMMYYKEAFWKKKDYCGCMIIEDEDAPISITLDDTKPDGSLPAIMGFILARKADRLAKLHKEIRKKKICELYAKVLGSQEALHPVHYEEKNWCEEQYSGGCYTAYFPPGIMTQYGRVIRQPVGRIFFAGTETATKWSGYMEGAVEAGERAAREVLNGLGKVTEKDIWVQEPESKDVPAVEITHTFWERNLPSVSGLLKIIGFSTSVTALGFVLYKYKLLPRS
- test summary: Inhibition of recombinant human MAO-A expressed in baculovirus infected BTI insect cells using p-tyramine as substrate pretreated for 15 mins followed by substrate addition by horse-radish peroxidase/amplex red-based fluorescence method
pIC50: −log10 of the molar value.

>  <chemical string>
O=C(NCCC1CCN(Cc2ccccc2)CC1)c1cc(=O)c2cc(O)c(O)cc2o1

>  <assay value>
4.15

$$$$
>  <chemical string>
O=C(NCCCC1CCN(Cc2ccccc2)CC1)c1cc(=O)c2cc(O)ccc2o1

>  <assay value>
< 4.00

$$$$
>  <chemical string>
COc1ccc2oc(C(=O)NCCC3CCN(Cc4ccccc4)CC3)cc(=O)c2c1

>  <assay value>
< 4.00

$$$$
>  <chemical string>
COc1ccc2c(=O)cc(C(=O)NCCC3CCN(Cc4ccccc4)CC3)oc2c1

>  <assay value>
< 4.00

$$$$
>  <chemical string>
O=C(NCCC1CCN(Cc2ccccc2)CC1)c1cc(=O)c2cc(O)ccc2o1

>  <assay value>
4.41

$$$$

Shifting focus to the molecule that follows.
Task: Fill in: pIC50 of COc1cc2[nH]c(C(=O)NCCC3CCN(Cc4ccccc4)CC3)cc(=O)c2cc1OC is ___
Output: < 4.00

====

- target or system: Amine oxidase [flavin-containing] B (Homo sapiens, UniProt P27338)
- Sequence (P27338 whole entry): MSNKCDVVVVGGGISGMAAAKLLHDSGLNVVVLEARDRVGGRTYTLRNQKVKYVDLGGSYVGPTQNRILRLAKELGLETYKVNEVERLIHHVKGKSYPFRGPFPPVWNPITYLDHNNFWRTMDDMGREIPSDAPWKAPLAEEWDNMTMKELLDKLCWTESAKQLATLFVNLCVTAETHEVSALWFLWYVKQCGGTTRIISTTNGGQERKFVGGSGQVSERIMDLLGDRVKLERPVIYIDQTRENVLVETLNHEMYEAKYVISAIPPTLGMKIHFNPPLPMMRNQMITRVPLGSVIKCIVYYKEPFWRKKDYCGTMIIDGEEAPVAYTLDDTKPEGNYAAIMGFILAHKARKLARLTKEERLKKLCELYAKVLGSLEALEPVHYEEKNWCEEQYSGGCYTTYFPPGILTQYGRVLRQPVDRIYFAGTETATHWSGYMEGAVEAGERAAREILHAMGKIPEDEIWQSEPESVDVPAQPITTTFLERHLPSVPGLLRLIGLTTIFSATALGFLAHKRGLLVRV
- test summary: biochemical
- Description: Inhibition of recombinant human MAO-B expressed in baculovirus infected BTI insect cells using p-tyramine as substrate pretreated for 15 mins followed by substrate addition by horse-radish peroxidase/amplex red-based fluorescence method
measurement name: IC50 (µM)
Answers are plain numbers, in µM.

Check out these entries, answers already filled in.
>  <chemical string>
O=C(NCCC1CCN(Cc2ccccc2)CC1)c1cc(=O)c2cc(O)c(O)cc2o1

>  <units>
µM

>  <IC50>
37.9

$$$$
>  <chemical string>
O=C(NCCC1CCN(Cc2ccccc2)CC1)c1cc(=O)c2cccc(O)c2[nH]1

>  <units>
µM

>  <IC50>
13.6

$$$$

Next compound, please.
Task: # input compound: O=C(NCCC1CCN(Cc2ccccc2)CC1)c1cc(=O)c2cc(O)ccc2o1 ; wanted: its IC50
Output: 51.2

====

- test summary: Antioxidant activity assessed as trolox equivalent of AAPH-induced radical scavenging activity at 10 uM pretreated for 15 mins followed by APPH challenge measured every minute for 80 mins by ORAC-FL assay
- Type: functional
Active and inactive are the calls of the source. The calls are words filed in the database; no cut-off is given here.
measurement name: Activity

Here are 5 molecules together with their reported answers.
>  <chemical string>
O=C(NCCC1CCN(Cc2ccccc2)CC1)c1cc(=O)c2cc([N+](=O)[O-])ccc2o1

>  <assay value>
inactive

$$$$
>  <chemical string>
COc1ccc2oc(C(=O)NCCCC3CCN(Cc4ccccc4)CC3)cc(=O)c2c1

>  <assay value>
inactive

$$$$
>  <chemical string>
COc1ccc2c(=O)cc(C(=O)NCCC3CCN(Cc4ccccc4)CC3)[nH]c2c1

>  <assay value>
inactive

$$$$
>  <chemical string>
COc1ccc2[nH]c(C(=O)NCCC3CCN(Cc4ccccc4)CC3)cc(=O)c2c1

>  <assay value>
inactive

$$$$
>  <chemical string>
COc1cc2oc(C(=O)NCCCC3CCN(Cc4ccccc4)CC3)cc(=O)c2cc1OC

>  <assay value>
inactive

$$$$

List reported Activity for each of these molecules:
1. COc1cc2[nH]c(C(=O)NCCC3CCN(Cc4ccccc4)CC3)cc(=O)c2cc1OC
2. COc1cccc2c(=O)cc(C(=O)NCCC3CCN(Cc4ccccc4)CC3)[nH]c12
3. COc1cc2oc(C(=O)NCCC3CCN(Cc4ccccc4)CC3)cc(=O)c2cc1OC

Output:
["inactive", "inactive", "inactive"]

====

- target or system: Sigma intracellular receptor 2 (Rattus norvegicus)
- Sequence (Q5U3Y7 whole entry): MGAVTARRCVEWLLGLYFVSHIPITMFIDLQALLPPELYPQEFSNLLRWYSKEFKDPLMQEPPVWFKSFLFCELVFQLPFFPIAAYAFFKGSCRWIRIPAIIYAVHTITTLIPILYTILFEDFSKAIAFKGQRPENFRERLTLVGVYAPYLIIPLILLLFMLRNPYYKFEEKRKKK
- test summary: Displacement of [3H]DTG from sigma2 receptor in rat liver membranes by liquid scintillation counting method
Please go through the items and note down their Ki.
Give bare numbers, in nM.

Solved entries (count: 5):
>  <chemical string>
COc1ccc2[nH]c(C(=O)NCCC3CCN(Cc4ccccc4)CC3)cc(=O)c2c1

>  <Ki, nM>
459

$$$$
>  <chemical string>
Nc1ccc2oc(C(=O)NCCC3CCN(Cc4ccccc4)CC3)cc(=O)c2c1

>  <Ki, nM>
421

$$$$
>  <chemical string>
COc1ccc2c(=O)cc(C(=O)NCCC3CCN(Cc4ccccc4)CC3)[nH]c2c1

>  <Ki, nM>
376

$$$$
>  <chemical string>
O=C(NCCC1CCN(Cc2ccccc2)CC1)c1cc(=O)c2cccc(O)c2[nH]1

>  <Ki, nM>
290

$$$$
>  <chemical string>
O=C(NCCC1CCN(Cc2ccccc2)CC1)c1cc(=O)c2cc(O)c(O)cc2o1

>  <Ki, nM>
278

$$$$

// each listed compound needs a value for Ki
1. COc1cc2[nH]c(C(=O)NCCC3CCN(Cc4ccccc4)CC3)cc(=O)c2cc1OC
2. O=C(NCCC1CCN(Cc2ccccc2)CC1)c1cc(=O)c2cc([N+](=O)[O-])ccc2o1

Output:
487
287

Fill in Ki for each of the 3 compounds listed.
1. COc1cc2oc(C(=O)NCCC3CCN(Cc4ccccc4)CC3)cc(=O)c2cc1OC
2. O=C(NCCCC1CCN(Cc2ccccc2)CC1)c1cc(=O)c2cc(O)ccc2o1
3. O=C(NCCC1CCN(Cc2ccccc2)CC1)c1cc(=O)c2cc(O)ccc2o1

Output:
239
301
345

====

- target or system: Sigma non-opioid intracellular receptor 1 (Cavia porcellus)
- Sequence (Q60492 whole entry): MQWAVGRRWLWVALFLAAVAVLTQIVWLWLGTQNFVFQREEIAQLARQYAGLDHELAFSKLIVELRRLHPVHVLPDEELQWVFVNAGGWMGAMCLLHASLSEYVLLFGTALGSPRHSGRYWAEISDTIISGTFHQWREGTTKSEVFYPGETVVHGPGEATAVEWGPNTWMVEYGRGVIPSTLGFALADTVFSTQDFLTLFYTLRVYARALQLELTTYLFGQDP
- test summary: Displacement of (+)-[3H]pentazocine from guinea pig brain membrane sigma1 receptor by liquid scintillation counting method
measurement name: log10 of Ki (log10 of the value in µM)
Lab note - Ki converted to log10 from values in µM.

Need log10 of Ki for each of these compounds.
1. COc1ccc2c(=O)cc(C(=O)NCCC3CCN(Cc4ccccc4)CC3)[nH]c2c1
2. O=C(NCCC1CCN(Cc2ccccc2)CC1)c1cc(=O)c2cccc(O)c2[nH]1
3. COc1ccc2[nH]c(C(=O)NCCC3CCN(Cc4ccccc4)CC3)cc(=O)c2c1
4. O=C(NCCC1CCN(Cc2ccccc2)CC1)c1cc(=O)c2cc([N+](=O)[O-])ccc2o1
5. O=C(NCCC1CCN(Cc2ccccc2)CC1)c1cc(=O)c2cc(O)c(O)cc2o1

Output:
1: -1.34; 2: -1.32; 3: -2.14; 4: -3.01; 5: -1.57

I would be grateful if you could provide log10 of Ki for each of the following entries.
1. Nc1ccc2oc(C(=O)NCCC3CCN(Cc4ccccc4)CC3)cc(=O)c2c1
2. O=C(NCCCC1CCN(Cc2ccccc2)CC1)c1cc(=O)c2cc(O)ccc2o1
3. COc1cc2[nH]c(C(=O)NCCC3CCN(Cc4ccccc4)CC3)cc(=O)c2cc1OC
4. O=C(NCCC1CCN(Cc2ccccc2)CC1)c1cc(=O)c2cc(O)ccc2o1
5. COc1cc2oc(C(=O)NCCC3CCN(Cc4ccccc4)CC3)cc(=O)c2cc1OC

Output:
-2.84
-2.46
-1.44
-1.38
-1.43

====

Target protein (sequence): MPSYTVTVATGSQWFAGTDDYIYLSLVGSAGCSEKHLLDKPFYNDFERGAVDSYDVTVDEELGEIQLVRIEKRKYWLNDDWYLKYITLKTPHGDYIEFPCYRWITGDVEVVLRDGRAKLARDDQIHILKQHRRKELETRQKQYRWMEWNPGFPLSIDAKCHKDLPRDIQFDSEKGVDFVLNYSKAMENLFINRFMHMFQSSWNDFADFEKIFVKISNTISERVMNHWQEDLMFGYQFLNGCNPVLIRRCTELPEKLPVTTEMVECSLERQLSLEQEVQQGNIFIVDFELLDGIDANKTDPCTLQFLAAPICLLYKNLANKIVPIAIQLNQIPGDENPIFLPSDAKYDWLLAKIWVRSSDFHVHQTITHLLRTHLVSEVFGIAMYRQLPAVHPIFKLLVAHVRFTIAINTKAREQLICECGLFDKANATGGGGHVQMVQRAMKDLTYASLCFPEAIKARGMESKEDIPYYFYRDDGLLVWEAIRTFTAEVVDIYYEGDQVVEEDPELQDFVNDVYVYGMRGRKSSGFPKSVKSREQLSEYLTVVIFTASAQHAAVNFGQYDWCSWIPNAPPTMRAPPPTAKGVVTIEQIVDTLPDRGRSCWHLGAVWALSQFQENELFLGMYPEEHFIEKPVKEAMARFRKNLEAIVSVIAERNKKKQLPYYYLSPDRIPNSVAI
Answer each item with its documented IC50.

Some compounds with known IC50 results, for comparison:
>  <chemical string>
COc1cc2oc(C(=O)NCCCC3CCN(Cc4ccccc4)CC3)cc(=O)c2cc1OC

>  <IC50>
> 100 µM

$$$$
>  <chemical string>
O=C(NCCC1CCN(Cc2ccccc2)CC1)c1cc(=O)c2ccccc2o1

>  <IC50>
> 100 µM

$$$$
>  <chemical string>
COc1cc2[nH]c(C(=O)NCCC3CCN(Cc4ccccc4)CC3)cc(=O)c2cc1OC

>  <IC50>
> 100 µM

$$$$
>  <chemical string>
COc1cc2oc(C(=O)NCC3CCN(Cc4ccccc4)CC3)cc(=O)c2cc1OC

>  <IC50>
> 100 µM

$$$$
>  <chemical string>
O=C(NCCCC1CCN(Cc2ccccc2)CC1)c1cc(=O)c2cc(O)ccc2o1

>  <IC50>
15.1 µM

$$$$

Please state IC50 for every compound in the list that follows.
1. O=C(NC1CCN(Cc2ccccc2)CC1)c1cc(=O)c2cc(O)ccc2o1
2. O=C(NCCC1CCN(Cc2ccccc2)CC1)c1cc(=O)c2cc(O)ccc2o1

Output:
["> 100 µM", "> 100 µM"]

Could I get IC50 for every one of these entries?
1. COc1ccc2oc(C(=O)NCCCC3CCN(Cc4ccccc4)CC3)cc(=O)c2c1
2. COc1ccc2c(=O)cc(C(=O)NCCC3CCN(Cc4ccccc4)CC3)[nH]c2c1
3. O=C(NCCC1CCN(Cc2ccccc2)CC1)c1cc(=O)c2cccc(O)c2[nH]1
4. Nc1ccc2oc(C(=O)NCCC3CCN(Cc4ccccc4)CC3)cc(=O)c2c1
5. O=C(NCCC1CCN(Cc2ccccc2)CC1)c1cc(=O)c2cc([N+](=O)[O-])ccc2o1
6. COc1ccc2oc(C(=O)NCCC3CCN(Cc4ccccc4)CC3)cc(=O)c2c1

Output:
["82.4 µM", "> 100 µM", "77.6 µM", "28.9 µM", "9.8 µM", "> 100 µM"]

For the 6 compounds below, give their IC50 values.
1. COc1cc2oc(C(=O)NCCC3CCN(Cc4ccccc4)CC3)cc(=O)c2cc1OC
2. O=C(NCCC1CCN(Cc2ccccc2)CC1)c1cc(=O)c2cc(O)c(O)cc2o1
3. O=C(NCCC1CCN(Cc2ccccc2)CC1)c1cc(=O)c2c(O)cc(O)cc2o1
4. COc1ccc2[nH]c(C(=O)NCCC3CCN(Cc4ccccc4)CC3)cc(=O)c2c1
5. COc1cccc2c(=O)cc(C(=O)NCCC3CCN(Cc4ccccc4)CC3)[nH]c12
6. COc1ccc2c(=O)cc(C(=O)NCCC3CCN(Cc4ccccc4)CC3)oc2c1

Output:
1. 74.3 µM
2. 4.2 µM
3. 95.1 µM
4. > 100 µM
5. > 100 µM
6. > 100 µM
